# Tested on: MDA-MB-453 (HER2 positive breast cancer cells)
# METHOD NOTES: MTT cell viability assay in MDA-MB-453 cells
# Assay type: cell-based, human
# EXPERIMENTAL CONTEXT: Homo sapiens; MDA-MB-453, 25 µM; read-out: Cell viability (%) ± SD
Threshold check on viability at 25 µM: strictly below 70% is 1.0; on or above 70% is 0.0.

Please state whether viability at 25 µM is below 70% for CC(=O)OC[C@H]1O[C@@H](n2cc(COc3cc(-c4ccc5ccccc5c4)nc4ccnn34)nn2)[C@H](OC(C)=O)[C@@H](OC(C)=O)[C@@H]1OC(C)=O 1.0

Please state whether viability at 25 µM is below 70% for CC(=O)OC[C@H]1O[C@@H](n2cc(COc3cc(-c4ccc(Cl)cc4)nc4ccnn34)nn2)[C@H](OC(C)=O)[C@@H](OC(C)=O)[C@@H]1OC(C)=O 1.0

Please state whether viability at 25 µM is below 70% for CC(=O)OC[C@H]1O[C@@H](n2cc(COc3cc(-c4ccc(C(F)(F)F)cc4)nc4ccnn34)nn2)[C@H](OC(C)=O)[C@@H](OC(C)=O)[C@H]1OC(C)=O [Compound 10f] 1.0

Please state whether viability at 25 µM is below 70% for CC(=O)OC[C@H]1O[C@H](n2cc(COc3cc(-c4ccc(C(C)C)cc4)nc4ccnn34)nn2)[C@@H](OC(C)=O)[C@@H](OC(C)=O)[C@@H]1OC(C)=O [Compound 11g] 0.0

Please state whether viability at 25 µM is below 70% for CC(=O)OC[C@H]1O[C@@H](n2cc(COc3cc(-c4ccc(C)cc4)nc4ccnn34)nn2)[C@H](OC(C)=O)[C@@H](OC(C)=O)[C@@H]1OC(C)=O 0.0

====

# Test system: MDA-MB-231 (human breast cancer) cell line
# METHOD NOTES: MTT cell viability assay in MDA-MB-231 cells
# Format: cell-based
# EXPERIMENTAL CONTEXT: Table 2, MDA-MB-231, MTT, 72 h, 50 µM, read-out: Cell viability (%) ± SD
ATTRIBUTE MEASURED: viability at 50 µM (%)
Answers are plain numbers, in %.

Known viability at 50 µM results, listed for orientation:
COMPOUND	viability at 50 µM, %
CC(=O)OC[C@H]1O[C@@H](n2cc(COc3cc(-c4ccc(C)cc4)nc4ccnn34)nn2)[C@H](OC(C)=O)[C@@H](OC(C)=O)[C@@H]1OC(C)=O [Compound 9a]	35.3
CC(=O)OC[C@H]1O[C@H](n2cc(COc3cc(-c4ccc5c(c4)OCO5)nc4ccnn34)nn2)[C@@H](OC(C)=O)[C@@H](OC(C)=O)[C@@H]1OC(C)=O [Compound 11i]	93.9
CC(=O)OC[C@H]1O[C@@H](n2cc(COc3cc(-c4ccc5c(c4)OCO5)nc4ccnn34)nn2)[C@H](OC(C)=O)[C@@H](OC(C)=O)[C@H]1OC(C)=O [Compound 10i]	98.5
CC(=O)OC[C@H]1O[C@@H](n2cc(COc3cc(-c4ccc(C(C)C)cc4)nc4ccnn34)nn2)[C@H](OC(C)=O)[C@@H](OC(C)=O)[C@@H]1OC(C)=O [Compound 9g]	68.5

Recall the reported viability at 50 µM of CC(=O)OC[C@H]1O[C@H](n2cc(COc3cc(-c4ccc5ccccc5c4)nc4ccnn34)nn2)[C@@H](OC(C)=O)[C@@H](OC(C)=O)[C@@H]1OC(C)=O [Compound 11h] on MDA-MB-231 (human breast cancer) cell line and write it down. 82.5

====

# Tested on: MDA-MB-453 (HER2 positive breast cancer cells)
# METHOD NOTES: MTT cell viability assay in MDA-MB-453 cells
# Assay type: cell-based, human
# EXPERIMENTAL CONTEXT: Homo sapiens; MDA-MB-453, 10 µM; read-out: Cell viability (%) ± SD
So I've got a bunch of compounds here, and I need their viability at 10 µM values.
One number for each entry, in %.

Known viability at 10 µM results, listed for orientation:
COMPOUND	TARGET OR SYSTEM	ATTRIBUTE MEASURED	MEASURED
CC(=O)OC[C@H]1O[C@@H](n2cc(COc3cc(-c4ccc(C(F)(F)F)cc4)nc4ccnn34)nn2)[C@H](OC(C)=O)[C@@H](OC(C)=O)[C@H]1OC(C)=O [Compound 10f]	MDA-MB-453 (HER2 positive breast cancer cells)	viability at 10 µM	80.9
CC(=O)OC[C@H]1O[C@@H](n2cc(COc3cc(-c4ccc(C)cc4)nc4ccnn34)nn2)[C@H](OC(C)=O)[C@@H](OC(C)=O)[C@@H]1OC(C)=O [Compound 9a]	MDA-MB-453 (HER2 positive breast cancer cells)	viability at 10 µM	86.4
CC(=O)OC[C@H]1O[C@H](n2cc(COc3cc(-c4ccc(C(C)C)cc4)nc4ccnn34)nn2)[C@@H](OC(C)=O)[C@@H](OC(C)=O)[C@@H]1OC(C)=O [Compound 11g]	MDA-MB-453 (HER2 positive breast cancer cells)	viability at 10 µM	76.4
CC(=O)OC[C@H]1O[C@@H](n2cc(COc3cc(-c4ccc(Cl)cc4)nc4ccnn34)nn2)[C@H](OC(C)=O)[C@@H](OC(C)=O)[C@@H]1OC(C)=O [Compound 9d]	MDA-MB-453 (HER2 positive breast cancer cells)	viability at 10 µM	82.2
CC(=O)OC[C@H]1O[C@@H](n2cc(COc3cc(-c4ccc5ccccc5c4)nc4ccnn34)nn2)[C@H](OC(C)=O)[C@@H](OC(C)=O)[C@@H]1OC(C)=O [Compound 9h]	MDA-MB-453 (HER2 positive breast cancer cells)	viability at 10 µM	74.8

Kindly review the next compound as well.
Indicate its recorded viability at 10 µM; the compound in question is CC(=O)OC[C@H]1O[C@@H](n2cc(COc3cc(-c4ccc(Cl)cc4)nc4ccnn34)nn2)[C@H](OC(C)=O)[C@@H](OC(C)=O)[C@H]1OC(C)=O [Compound 10d] 78.3

====

# Test system: MDA-MB-231 (human breast cancer) cell line
# METHOD NOTES: MTT cell viability assay in MDA-MB-231 cells
# Format: cell-based
# EXPERIMENTAL CONTEXT: Table 2, MDA-MB-231, MTT, 72 h, 25 µM, read-out: Cell viability (%) ± SD
So I've got a bunch of compounds here, and I need their viability at 25 µM values.
Note: state the figure and append the unit.

Known viability at 25 µM results, listed for orientation:
COMPOUND	TARGET OR SYSTEM	viability at 25 µM
CC(=O)OC[C@H]1O[C@H](n2cc(COc3cc(-c4ccc5ccccc5c4)nc4ccnn34)nn2)[C@@H](OC(C)=O)[C@@H](OC(C)=O)[C@@H]1OC(C)=O [Compound 11h]	MDA-MB-231 (human breast cancer) cell line	89.8%
CC(=O)OC[C@H]1O[C@@H](n2cc(COc3cc(-c4ccc5ccccc5c4)nc4ccnn34)nn2)[C@H](OC(C)=O)[C@@H](OC(C)=O)[C@@H]1OC(C)=O	MDA-MB-231 (human breast cancer) cell line	55.2%
CC(=O)OC[C@H]1O[C@@H](n2cc(COc3cc(-c4ccc(Br)cc4)nc4ccnn34)nn2)[C@H](OC(C)=O)[C@@H](OC(C)=O)[C@H]1OC(C)=O [Compound 10c]	MDA-MB-231 (human breast cancer) cell line	77.8%

Indicate its recorded viability at 25 µM; the compound in question is CC(=O)OC[C@H]1O[C@@H](n2cc(COc3cc(-c4ccc(F)cc4)nc4ccnn34)nn2)[C@H](OC(C)=O)[C@@H](OC(C)=O)[C@H]1OC(C)=O [Compound 10e] 68.6%
